assayed-system: T1, Human GPA33 on GPA33+ colorectal cancer cell lines (Colo 205, LS 174T, SW 1222) (human, UniProt Q99795 22-319)
T1 construct: Endogenous GPA33 on human colorectal cancer cell lines; also called surface human GPA33; GPA33+ tumor cell lines
T1 sequence: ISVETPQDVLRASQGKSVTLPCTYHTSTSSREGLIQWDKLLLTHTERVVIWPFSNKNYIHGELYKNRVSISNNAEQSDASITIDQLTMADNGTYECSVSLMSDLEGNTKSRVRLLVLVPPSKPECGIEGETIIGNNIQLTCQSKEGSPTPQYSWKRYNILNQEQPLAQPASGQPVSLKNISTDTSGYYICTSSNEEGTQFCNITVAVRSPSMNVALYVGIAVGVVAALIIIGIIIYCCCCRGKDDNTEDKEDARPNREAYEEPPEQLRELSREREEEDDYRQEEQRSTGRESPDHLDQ
test-description: cell binding to SW1222 Luc cells; IgG format
Let's look at some binders and their measured EC50.

[
  {
    "binder": "Humanized A33 antibody with variable heavy chain VH1 and variable light chain VK4 (antibody, IgG1, V domains shown, Mouse A33 was humanized as IgG1 and tested in IgG format; also called VH1/VK4; huA33 IgG1) VH: EVQLVESGGGLVKPGGSLRLSCAASGFAFSTYDMSWVRQAPGKGLEWVSTISSGGSYTYYADSVKGRFTISRDNAKNSLYLQMNSLRAEDTAVYYCAPTTVVPFAYWGQGTLVTVSA VL: DIQMTQSPSSLSASVGDRVTITCKASQNVRTVVAWYQQKPGKAPKTLIYLASNRHTGVPSRFSGSGSGTEFTLTISNLQPEDFATYYCLQHWSYPLTFGSGTKLEVK",
    "units-symbol": "µg/mL",
    "EC50": 0.466
  },
  {
    "binder": "G3A_VK6+VH1 (antibody, V domains shown) VH: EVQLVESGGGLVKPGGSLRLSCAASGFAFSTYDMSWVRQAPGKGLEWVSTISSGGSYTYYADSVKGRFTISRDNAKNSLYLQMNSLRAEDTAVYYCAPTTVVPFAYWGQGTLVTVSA VL: DIQMTQSPSSLSASVGDRVTITCKASQNVRTVVAWYQQKPGKAPKRLIYLASNRHTGVPSRFSGSGSGTEFTLTISNLQPEDFATYFCLQHWSYPLTFGSGTKLEVK",
    "units-symbol": "µg/mL",
    "EC50": 0.831
  },
  {
    "binder": "G3A_VK3+VH1 (antibody, IgG1, V domains shown) VH: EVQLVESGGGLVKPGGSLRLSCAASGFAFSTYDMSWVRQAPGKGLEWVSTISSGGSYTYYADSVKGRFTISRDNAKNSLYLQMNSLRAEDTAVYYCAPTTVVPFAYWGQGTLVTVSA VL: DIQMTQSPSSLSTSVGDRVTITCKASQNVRTVVAWYQQKPGKAPKTLIYLASNRHSGVPSRFSGSGSGTEFTLTISNLQPEDFATYYCLQHWSYPLTFGSGTKLEVK",
    "units-symbol": "µg/mL",
    "EC50": 0.338
  }
]

Recorded values, source patent US20240026037A1.
